// data source = PubChem BioAssay AID248

Test system: L1210 leukemia ip in BDF1 mice, survival T/C
Experiment: NCI In Vivo Anticancer Drug Screen. Data for tumor model L1210 Leukemia (intraperitoneal) in B6D2F1 (BDF1) mice
Conditions: endpoint: mean survival time; dose: 50.0 mg/kg/injection; schedule: Q04DX002 (ip); vehicle: Klucel (hydroxypropylcellulose) (HPC); higher = longer survival
Inconclusive results and toxic doses are left out.
MEASUREMENT_TYPE: T/C

INPUT: So what does the record say about T/C for `C[C@]12CC[C@@H]3c4cc([N+]#N)c([O-])cc4CC[C@H]3[C@@H]1CCC2=O` ?
OUTPUT: 122 % of control

INPUT: Let us now turn to `CC(C)C(=O)[O][Pb]([c]1ccccc1)([c]1ccccc1)[c]1ccccc1`
OUTPUT: 97 % of control

INPUT: Let us now turn to `C=Cc1c[nH]c(=O)[nH]c1=O`
OUTPUT: 94 % of control

INPUT: Let us now turn to C1CCC2[N-]CC3CCCCC3[N-]CC3CCCCC3[N-]CC3CCCCC3[N-]CC2C1.[Cl][Fe]([Cl])([Cl])[Cl].[Fe+6] (stereo not given)
OUTPUT: 94 % of control

INPUT: Let us now turn to `O=C1C=CC(=O)N1C(c1ccccc1)c1ccccc1`
OUTPUT: 94 % of control
